read-out: Collagen I, COL1A1 (gene 1277); assay: BSK_hDFCGF_CollagenI: BioMAP Diversity Plus: hDFCGF Assay for Collagen I Biomarker Activity (AID 2284250); settings: primary human foreskin fibroblasts
Active and inactive are the calls of the source. How the source made its calls: active means hit-call score of the fitted dose curve at least 0.9, where 1 is the maximum; inactive means score below 0.9.
metric: outcome

O=C(O)C=C(C(F)(F)F)C(F)(F)F inactive
O=P(O)(O)OCCC(F)(F)C(F)(F)C(F)(F)C(F)(F)C(F)(F)C(F)(F)F inactive
C=CC(F)(F)C(F)(F)C(F)(F)C(F)(F)C(F)(F)C(F)(F)C(F)(F)C(F)(F)F inactive

----------
read-out: Human Leukocyte Antigen - DR isotype (HLADR), HLA-DRA (gene 3122); experiment: BSK_BE3C_HLADR: BioMAP Diversity Plus: BE3C Assay for Human Leukocyte Antigen - DR isotype (HLADR) Biomarker Activity (AID 2283032); details: primary human bronchial epithelial cells; actives raise or lower the signal
The source made the active and inactive calls. How the source made its calls: active means hit-call score of the fitted dose curve at least 0.9, where 1 is the maximum; inactive means score below 0.9.
metric: AC50

Reference set (4 entries):
NC(=O)C(F)(F)C(F)(F)C(F)(F)C(F)(F)F inactive
C=C(C)C(=O)OCC(F)(F)C(F)(F)C(F)(F)F inactive
CCc1ccc(C(c2ccc(CC)cc2)C(Cl)Cl)cc1 13.6 µM (active)
O=C(O)C(F)(F)C(F)(F)C(F)(F)F inactive

Turning now to a further compound:
Any idea what AC50 was measured for CCCCCCCOC(=O)c1ccccc1C(=O)OCCCCCCC ?
inactive

----------
read-out: Interleukin-1 alpha (IL1a), IL1A (gene 3552); experiment: BSK_LPS_IL1a: BioMAP Diversity Plus: LPS Assay for Interleukin-1 alpha (IL1a) Biomarker Activity (AID 2283080); conditions: primary human HUVEC with PBMC; actives raise or lower the signal
Calls of active or inactive are those of the source. Rule for the calls: active = hit-call score of the fitted dose curve at least 0.9, where 1 is the maximum; inactive = score below 0.9.
Valid outcomes are listed here; reply with one: YES (active), NO (inactive)

Which result was noted for this molecule in the test: OCC(F)(F)C(F)(F)C(F)(F)C(F)(F)C(F)(F)C(F)(F)F
NO

Check the results log: what was the call for C=CC(F)(F)C(F)(F)C(F)(F)C(F)(F)C(F)(F)C(F)(F)C(F)(F)C(F)(F)C=C ?
NO

Entry O=C(Cl)C(F)(F)C(F)(F)C(F)(F)C(F)(F)C(F)(F)C(F)(F)C(F)(F)C(F)(F)F : call = ?
NO

Which outcome did this test record for the molecule O=C(O)C(F)(F)C(F)(F)C(F)(F)C(F)(F)C(F)(F)C(F)(F)C(F)(F)C(F)(F)C(F)(F)C(F)(F)C(F)(F)C(F)(F)F ?
NO

Hi, sorry to bother you, what did the test record for O=C(O)C(F)(OC(F)(F)C(F)(OC(F)(F)C(F)(F)C(F)(F)F)C(F)(F)F)C(F)(F)F (stereo not drawn) ?
NO

I'd appreciate the recorded outcome for O=C(O)C(F)(F)C(F)(F)C(F)(F)C(F)(F)C(F)(F)C(F)(F)C(F)(F)C(F)(F)Cl from this test.
NO

Record lookup: outcome of this test for FC(F)(F)C(F)(F)C(F)(F)CI ?
NO

Recorded test call requested for Nc1ccc([N+](=O)[O-])cc1O
NO

State the result this test recorded for FC(F)(F)C(F)(F)C(F)(F)C(F)(F)CCI .
NO

# lookup: test call for O=C(O)C(F)(F)C(F)(F)C(F)(F)C(F)(F)C(F)(F)C(F)(F)C(F)(F)C(F)(F)C(F)(F)C(F)(F)C(F)(F)C(F)(F)C(F)(F)F
NO

Answer briefly: the call reported for CC(CCl)OP(=O)(OC(C)CCl)OC(C)CCl (stereo not drawn) in this assay.
NO

What did the test return for FC(F)(F)C(F)(F)C(F)(F)C(F)(F)C(F)(F)CCI ?
NO

Dear colleague, could you share the recorded outcome for C=CC(=O)OCC(F)(F)C(F)(F)C(F)(F)C(F)(F)C(F)(F)C(F)(F)C(F)(F)F when you have a moment?
NO

// param item: C#C[C@]1(O)CC[C@H]2[C@@H]3CCc4cc(OC)ccc4[C@H]3CC[C@@]21C ; yields the recorded call
YES

----------
test: ATG_CMV_CIS: Attagene CIS-FACTORIAL HepG2 Assay for human CMV (Internal Marker) (AID 2282928); conditions: HepG2 CMV promoter reporter, transcription factor profiling; actives raise or lower the signal;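 further: endpoint acts as a background internal control marker rather than a target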
Calls of active or inactive are those of the source. The calls were made as follows: active = hit-call score of the fitted dose curve at least 0.9, where 1 is the maximum; inactive = score below 0.9.
metric: outcome

compound	result
OCC(F)(F)C(F)(F)C(F)(F)C(F)F	inactive
CCCCCCOC(=O)c1ccccc1O	inactive
COC(=O)C1CCC(C(=O)OC)CC1 (stereo not drawn)	inactive

----------
read-out: C-C motif chemokine 2 (Homo sapiens) (UniProt P13500); experiment: BSK_KF3CT_MCP1: BioMAP Diversity Plus: KF3CT Assay for Monocyte Chemoattractant Protein 1 (MCP1/CCL2) Biomarker Activity (AID 2283073); conditions: primary human keratinocytes with fibroblasts; actives raise or lower the signal
Activity calls are given as the source filed them. The calls were made as follows: active = hit-call score of the fitted dose curve at least 0.9, where 1 is the maximum; inactive = score below 0.9.
metric: outcome

CCc1c(Br)c(Br)c(Br)c(Br)c1Br inactive
FC(F)(Br)C(F)(F)C(F)(F)C(F)(F)C(F)(F)C(F)(F)Br inactive
FC(F)(F)C(F)(F)C(F)(F)C(F)(F)C(F)(F)C(F)(F)C(F)(F)C(F)(F)F inactive
CCCCCCCCC(F)(F)C(F)(F)C(F)(F)C(F)(F)C(F)(F)C(F)(F)F inactive

----------
test: BSK_SAg_SRB: Viability Assessment in the BioMAP Diversity Plus: SAg Assay (AID 2283096); conditions: primary human HUVEC with PBMC;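 further: cells read one day after compound addition; hits may be either gain or loss of signal compared with DMSO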
The source made the active and inactive calls. Rule for the calls: active = hit-call score of the fitted dose curve at least 0.9, where 1 is the maximum; inactive = score below 0.9.
Mark one answer only. Choices: 1 = active, 0 = inactive

Look over these answered cases.
compound	qualitativeLabel
CCc1ccc(C(c2ccc(CC)cc2)C(Cl)Cl)cc1	1
CS(C)(=O)=O	0
CCO[Si](CCC(F)(F)C(F)(F)C(F)(F)C(F)(F)C(F)(F)C(F)(F)F)(OCC)OCC	0
CC(CCl)OP(=O)(OC(C)CCl)OC(C)CCl (stereo not drawn)	0
Nc1ccc([N+](=O)[O-])cc1O	0

Hi, sorry to bother you, what did the test record for COC(=O)CCC(F)(F)C(F)(F)C(F)(F)C(F)(F)F ?
0

Please state the recorded outcome for this compound: CCN(CC)c1ccc2c(C)cc(=O)oc2c1
0

Answer briefly: the call reported for Oc1ccc(Nc2ccccc2)cc1 in this assay.
0

----------
Assay: ATG_FoxO_CIS: Attagene CIS-FACTORIAL HepG2 Assay for human Forkhead box O (FoxO) (AID 2282943)
Conditions: HepG2 Attagene cis-reporter, FoxO element, mRNA; actives raise or lower the signal
Experimental: ATG_CIS is a cell-based, multiplexed-readout assay that uses HepG2, a human liver cell line, with measurements taken at 24 hours after chemical dosing in a 24-well plate.ATG_FoxO_CIS is one of 52 assay component(s) measured or calculated from the ATG_CIS assay. […] This assay endpoint, ATG_FoxO_CIS, was analyzed with bidirectional fitting relative to DMSO as the negative control and baseline of activity. […]
Active and inactive are the calls of the source. The calls were made as follows: active = hit-call score of the fitted dose curve at least 0.9, where 1 is the maximum; inactive = score below 0.9.
Log the outcome using a class from y = active, n = inactive

compound	qualitativeLabel
O=C(O)C(F)(OC(F)(F)C(F)(OC(F)(F)C(F)(F)C(F)(F)F)C(F)(F)F)C(F)(F)F (centres undefined)	n
CNC(=S)NC	n
Nc1ccc([N+](=O)[O-])cc1O	n
Nc1ccc(Oc2cccc(Oc3ccc(N)cc3)c2)cc1	y
CCCCCCCCCCCCCCCC[N+](C)(C)Cc1ccccc1	n
CCCCOCCOCCOC(=O)CCCCC(=O)OCCOCCOCCCC	n
O=C(O)C=C(C(F)(F)F)C(F)(F)F	n
CS(C)(=O)=O	n

# next compound below
Just curious, what result did CC(Cc1ccc(O)c(O)c1)C(C)Cc1ccc(O)c(O)c1 (centres undefined) get here?
n

----------
Read-out: Macrophage colony-stimulating factor (MCSF), CSF1 (gene 1435)
Assay: BSK_hDFCGF_MCSF: BioMAP Diversity Plus: hDFCGF Assay for Macrophage colony-stimulating factor (MCSF) Biomarker Activity (AID 2283060)
Conditions: primary human foreskin fibroblasts; actives raise or lower the signal
Description: BSK_hDFCGF is a cell-based, multiplexed-readout assay that uses foreskin fibroblast, a human skin primary cell, with measurements taken at 24 hours after chemical dosing in a 96-well plate.BSK_hDFCGF_MCSF is an assay component measured in the BSK_hDFCGF assay. It measures M-CSF antibody related to regulation of gene expression using ELISA technology.Data from the assay component BSK_hDFCGF_MCSF was analyzed into 1 assay endpoint. […]
The source made the active and inactive calls. The calls were made as follows: active = hit-call score of the fitted dose curve at least 0.9, where 1 is the maximum; inactive = score below 0.9.
Answer with one of the outcomes t (active), f (inactive)

Recorded results for 5 compounds are shown here.
compound	qualitativeLabel
FC1CC(F)(F)C(F)(F)C1(F)F (configuration not stated)	f
C#C[C@]1(O)CC[C@H]2[C@@H]3CCc4cc(OC)ccc4[C@H]3CC[C@@]21C	f
C=C(C)C(=O)OCCC(F)(F)C(F)(F)C(F)(F)C(F)(F)C(F)(C(F)(F)F)C(F)(F)F	f
O[Si](c1ccccc1)(c1ccccc1)c1ccccc1	t
O=C(Cl)C(F)(F)C(F)(F)C(F)(F)C(F)(F)C(F)(F)C(F)(F)C(F)(F)C(F)(F)F	f

Query: recorded result category for NC(=O)C(F)(F)C(F)(F)C(F)(F)C(F)(F)F in this test
f

Please indicate how the test categorized FC(F)(F)C(F)(F)CNCC(F)(F)C(F)(F)F .
f
